measured on: KDR (phospho-KDR, VEGF165-stimulated HUVEC cells) (Homo sapiens (Human))
Sequence (P35968 20-1356): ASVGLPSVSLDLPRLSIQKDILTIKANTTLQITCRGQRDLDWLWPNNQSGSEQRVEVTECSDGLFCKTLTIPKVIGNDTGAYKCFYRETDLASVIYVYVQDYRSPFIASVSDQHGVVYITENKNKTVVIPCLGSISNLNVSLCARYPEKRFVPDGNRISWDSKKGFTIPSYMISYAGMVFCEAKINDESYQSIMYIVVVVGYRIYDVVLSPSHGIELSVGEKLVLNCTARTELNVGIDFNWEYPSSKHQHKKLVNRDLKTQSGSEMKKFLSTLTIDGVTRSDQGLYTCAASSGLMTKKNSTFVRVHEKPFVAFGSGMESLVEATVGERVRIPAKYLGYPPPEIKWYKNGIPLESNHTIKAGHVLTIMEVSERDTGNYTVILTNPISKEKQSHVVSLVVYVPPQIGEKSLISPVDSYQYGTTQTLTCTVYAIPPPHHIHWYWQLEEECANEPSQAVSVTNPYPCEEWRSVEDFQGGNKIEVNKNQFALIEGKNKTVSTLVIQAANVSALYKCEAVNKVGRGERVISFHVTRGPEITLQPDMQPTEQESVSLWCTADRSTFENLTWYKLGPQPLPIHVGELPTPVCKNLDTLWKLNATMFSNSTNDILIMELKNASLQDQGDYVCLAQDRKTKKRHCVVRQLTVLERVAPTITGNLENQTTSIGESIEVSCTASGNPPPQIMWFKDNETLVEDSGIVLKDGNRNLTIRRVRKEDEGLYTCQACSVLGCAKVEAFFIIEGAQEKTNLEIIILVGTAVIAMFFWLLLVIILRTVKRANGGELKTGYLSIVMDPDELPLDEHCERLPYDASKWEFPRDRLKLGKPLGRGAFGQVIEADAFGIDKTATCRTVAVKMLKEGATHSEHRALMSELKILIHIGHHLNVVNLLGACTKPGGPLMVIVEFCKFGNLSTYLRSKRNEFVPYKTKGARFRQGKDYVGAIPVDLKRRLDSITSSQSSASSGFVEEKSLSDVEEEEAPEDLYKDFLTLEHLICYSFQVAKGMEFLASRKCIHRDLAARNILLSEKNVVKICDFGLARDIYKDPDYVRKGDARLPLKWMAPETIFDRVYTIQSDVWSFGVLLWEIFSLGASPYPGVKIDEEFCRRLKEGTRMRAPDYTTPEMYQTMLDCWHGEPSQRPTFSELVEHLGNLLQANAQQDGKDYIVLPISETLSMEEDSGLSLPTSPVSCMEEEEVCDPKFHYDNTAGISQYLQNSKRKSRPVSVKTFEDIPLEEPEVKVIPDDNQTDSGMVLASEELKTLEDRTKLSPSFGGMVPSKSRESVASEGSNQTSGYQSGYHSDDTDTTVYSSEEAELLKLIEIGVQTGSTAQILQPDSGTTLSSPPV
method: KDR autophosphorylation ELISA in HUVEC cells (Example G)
Assay type: cell-based
setup conditions: cellular activity; KDR autophosphorylation ELISA in HUVEC cells
Below: a set of entries, each annotated with reported IC50.

| structure as smiles | IC50 |
| --- | --- |
| COCc1nc(C)c(-c2ccc(F)cc2C)c(O)c1C(=O)Nc1ccc(Oc2ccnc3cc(OC)cnc23)cc1 | < 100 nM |
| Cc1cnc(C(=O)Nc2ccc(Oc3ccnc4cnc(Cl)cc34)c(F)c2)c(=O)n1-c1ccc(F)cc1 | > 300 nM |
| COc1cc2nccc(Oc3ccc(NC(=O)c4c(C)c(Cl)c(C)n(-c5ccc(F)cc5)c4=O)cc3)c2nc1OC | > 300 nM |
| COc1cc2nccc(Oc3ccc(NC(=O)c4cn(C5CC5)c(C)c(-c5ccc(F)cc5)c4=O)cc3)c2nc1OC | > 300 nM |
| COc1cnc2c(Oc3ccc(NC(=O)c4cn(C)c(CO)c(-c5ccc(F)cc5)c4=O)cc3F)ccnc2c1 | > 300 nM |
| COc1cc2nccc(Oc3ccc(NC(=O)c4c(C)n(CC(F)(F)F)cc(-c5ccc(F)cc5)c4=O)cc3F)c2nc1OC | 100 to 300 nM |
| COCc1nc(C)c(-c2ccc(F)cc2)c(O)c1C(=O)Nc1ccc(Oc2ccnc3ccc(OC)nc23)cc1 | < 100 nM |
| CCOc1nc2c(Oc3ccc(NC(=O)c4c(C)nc(C)c(-c5ccc(F)cc5C)c4O)cc3F)ccnc2cc1OC | < 100 nM |
| COc1cc2nccc(Oc3ccc(NC(=O)c4c(C)nnc(-c5ccc(F)cc5)c4OC)cc3F)c2nc1OC | < 100 nM |
| COc1cc2nccc(Oc3ccc(NC(=O)c4cn(-c5cnn(C)c5)c(C)c(-c5ccc(F)cc5)c4=O)cc3F)c2nc1OC | > 300 nM |
| COc1cc2nccc(Oc3ccc(NC(=O)c4cnc(C)c(-c5ccc(F)cc5C)c4O)cc3)c2nc1OC(C)C | < 100 nM |
| COc1cc2nccc(Oc3ccc(NC(=O)c4c(C)nc(C)c(-c5ccc(F)c(C)c5)c4O)cc3F)c2nc1OC | < 100 nM |
| COc1cc2nccc(Oc3ccc(NC(=O)c4c(C)n(C)cc(-c5ccc(F)cc5C)c4=O)cc3F)c2nc1OC | < 100 nM |
| C=C(C)c1cnc2c(Oc3ccc(NC(=O)c4n[nH]c(C)c(-c5ccc(F)cc5)c4=O)cc3F)ccnc2c1 | < 100 nM |

----------
measured on: Human KDR (residues 790-1356) (Homo sapiens (Human), UniProt P35968)
Sequence (P35968 790-1356): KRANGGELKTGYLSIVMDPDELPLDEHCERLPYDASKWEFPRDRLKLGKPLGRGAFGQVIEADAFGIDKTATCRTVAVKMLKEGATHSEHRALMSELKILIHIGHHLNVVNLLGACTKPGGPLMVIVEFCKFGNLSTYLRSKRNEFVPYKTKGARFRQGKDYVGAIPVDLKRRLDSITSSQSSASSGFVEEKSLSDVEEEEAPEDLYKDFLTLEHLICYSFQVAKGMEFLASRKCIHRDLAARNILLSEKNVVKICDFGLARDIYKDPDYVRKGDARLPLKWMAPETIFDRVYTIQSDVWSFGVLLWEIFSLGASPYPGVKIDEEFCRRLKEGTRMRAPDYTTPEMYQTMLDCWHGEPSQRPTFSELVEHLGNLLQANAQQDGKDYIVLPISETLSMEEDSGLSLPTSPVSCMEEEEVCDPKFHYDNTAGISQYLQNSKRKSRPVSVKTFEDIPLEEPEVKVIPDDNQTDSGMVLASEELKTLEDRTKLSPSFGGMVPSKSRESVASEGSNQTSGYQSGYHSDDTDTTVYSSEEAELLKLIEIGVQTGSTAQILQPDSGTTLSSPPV
method: Human KDR kinase assay, HTRF KinEase (Example B-2)
Type: biochemical
setup conditions: protocol of Example B-2 (other compounds)
Below: a set of entries, each annotated with reported IC50.

| compound | IC50 |
| --- | --- |
| Cc1ncc(C(=O)Nc2ccc(Oc3ccnc4cc(C(F)(F)F)cnc34)c(F)c2)c(O)c1-c1ccc(F)cc1 [Compound 151] | > 300 nM |
| COCCOc1nc2c(Oc3ccc(NC(=O)c4cnc(C)c(-c5ccc(F)cc5)c4O)cc3F)ccnc2cc1C [Compound 436] | 100 to 300 nM |
| CCn1cc(C(=O)Nc2ccc(Oc3ccnc4cc(O)cnc34)c(F)c2)c(=O)c(-c2ccc(F)cc2)c1C [Compound 410] | > 300 nM |
| COc1cc2nccc(Oc3ccc(NC(=O)c4c(C)nc(C)c(-c5ccc(F)cc5)c4O)cc3F)c2nc1OC [Compound 154] | < 100 nM |
| COCc1nc(C)c(-c2ccc(F)cc2)c(O)c1C(=O)Nc1ccc(Oc2ccnc3cc(OC)c(OC)nc23)c(F)c1 [Compound 184] | < 100 nM |
| COc1ccc2nccc(Oc3ccc(NC(=O)c4cnc(C)c(-c5ccc(F)cc5)c4O)cc3)c2n1 [Compound 342] | 100 to 300 nM |
| COc1cnc2c(Oc3ccc(NC(=O)c4nccn(-c5ccc(F)cc5)c4=O)cc3F)ccnc2c1 [Compound 381] | > 300 nM |
| CCn1cc(C(=O)Nc2ccc(Oc3ccnc4cc(OC)cnc34)cc2)c(=O)c(-c2ccc(F)cc2)c1 [Compound 169] | > 300 nM |
| CCc1nc(C)c(-c2ccc(F)cc2)c(O)c1C(=O)Nc1ccc(Oc2ccnc3cc(OC)c(OC)nc23)cc1 [Compound 197] | < 100 nM |
| COc1cc2nccc(Oc3ccc(NC(=O)c4cn(-c5cnn(C)c5)c(C)c(-c5ccc(F)cc5)c4=O)cc3)c2nc1OC [Compound 141] | > 300 nM |
| CNc1c(-c2ccc(F)cc2)c(=O)c(C(=O)Nc2ccc(Oc3ccnc4cc(OC)c(OC)nc34)c(F)c2)cn1C [Compound 76] | < 100 nM |
| COc1nc2c(Oc3ccc(NC(=O)c4cn(C(C)C)c(C)c(-c5ccc(F)cc5)c4=O)cc3F)ccnc2cc1Br [Compound 132] | 100 to 300 nM |
| COCc1nc(C)c(-c2ccc(F)cc2C)c(O)c1C(=O)Nc1ccc(Oc2ccnc3cc(OC)c(OC)nc23)c(F)c1 [Compound 191] | < 100 nM |
| COc1cc2nccc(Oc3ccc(NC(=O)c4cnc(C)c(-c5ccc(F)cc5C)c4O)cc3)c2nc1OC(C)C [Compound 414] | > 300 nM |

----------
Below: a set of entries, each annotated with reported pIC50.
measured on: Mer (phospho-Mer, MERTK-transfected 293A cells) (Homo sapiens (Human), UniProt Q12866)
Sequence (Q12866 21-999): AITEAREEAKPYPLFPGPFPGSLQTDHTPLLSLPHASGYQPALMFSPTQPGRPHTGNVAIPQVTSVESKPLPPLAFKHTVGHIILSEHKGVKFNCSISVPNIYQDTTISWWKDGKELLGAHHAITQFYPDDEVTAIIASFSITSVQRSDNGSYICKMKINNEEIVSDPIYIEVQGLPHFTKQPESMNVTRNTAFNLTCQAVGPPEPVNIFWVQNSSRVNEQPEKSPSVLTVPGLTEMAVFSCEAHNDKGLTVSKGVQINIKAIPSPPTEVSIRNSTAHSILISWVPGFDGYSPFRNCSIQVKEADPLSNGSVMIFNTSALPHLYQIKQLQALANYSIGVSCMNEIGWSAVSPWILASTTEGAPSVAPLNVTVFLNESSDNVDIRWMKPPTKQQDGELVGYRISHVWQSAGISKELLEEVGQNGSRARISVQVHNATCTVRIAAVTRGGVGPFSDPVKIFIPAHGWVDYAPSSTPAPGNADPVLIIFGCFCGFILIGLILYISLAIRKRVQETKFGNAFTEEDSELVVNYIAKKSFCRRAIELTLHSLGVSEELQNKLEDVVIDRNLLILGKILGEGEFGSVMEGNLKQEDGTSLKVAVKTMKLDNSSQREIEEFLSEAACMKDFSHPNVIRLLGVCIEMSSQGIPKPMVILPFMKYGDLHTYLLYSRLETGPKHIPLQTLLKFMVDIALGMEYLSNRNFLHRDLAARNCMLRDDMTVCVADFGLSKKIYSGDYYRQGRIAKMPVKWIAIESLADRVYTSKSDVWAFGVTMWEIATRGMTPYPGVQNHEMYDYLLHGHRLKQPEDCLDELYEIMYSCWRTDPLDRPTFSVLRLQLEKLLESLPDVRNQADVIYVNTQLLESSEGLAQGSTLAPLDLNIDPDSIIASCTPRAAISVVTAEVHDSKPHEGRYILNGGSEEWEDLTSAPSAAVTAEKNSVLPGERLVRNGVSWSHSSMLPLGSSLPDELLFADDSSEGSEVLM
method: Mer autophosphorylation ELISA in transient transfected 293A cells (Example H)
Assay type: cell-based
setup conditions: cellular activity; Mer autophosphorylation ELISA in transient transfected 293A cells
pIC50: −log10 of the molar value.

| compound | pIC50 |
| --- | --- |
| COc1cnc2c(Oc3ccc(NC(=O)c4cn(C(C)(C)C)c(C)c(-c5ccc(F)cc5)c4=O)cc3)ccnc2c1 [Compound 165] | > 7.00 |
| CCc1c(C)c(C(=O)Nc2ccc(Oc3ccnc4cc(OC)cnc34)c(F)c2)c(=O)n(-c2ccc(F)cc2)c1C [Compound 335] | > 7.00 |
| COc1cc2nccc(Oc3ncc(NC(=O)c4cn(C5CC5)cc(-c5ccc(F)cc5)c4=O)cc3F)c2cc1OC [Compound 399] | > 7.00 |
| COc1cc2nccc(Oc3ccc(NC(=O)c4cn5c(c(-c6ccc(F)cc6)c4=O)COCC5)cc3)c2nc1OC [Compound 660] | > 7.00 |
| CCOc1c(C(=O)Nc2ccc(Oc3ccnc4cc(OC)c(OC)nc34)c(F)c2)nnc(C)c1-c1ccc(F)cc1 [Compound 569] | > 7.00 |
| COCc1nc(C)c(-c2ccc(F)cc2F)c(O)c1C(=O)Nc1cc(F)c(Oc2ccnc3cc(OC)c(OC)nc23)cc1F [Compound 778] | > 7.00 |
| C=Cc1cc2nccc(Oc3ccc(NC(=O)c4cnc(C)c(-c5ccc(F)cc5C)c4O)cc3F)c2nc1OC [Compound 423] | > 7.00 |

----------
measured on: Human KDR (residues 790-1356) (Homo sapiens (Human))
method: Human KDR kinase assay, HTRF KinEase (Example B-2)
Assay type: biochemical
setup conditions: protocol of Example B-2 (other compounds)
Below: a set of entries, each annotated with reported IC50.

| structure as smiles | measured on | IC50 |
| --- | --- | --- |
| COc1cnc2c(Oc3ccc(NC(=O)c4ccc(C)n(-c5ccc(F)cc5)c4=O)cc3)ccnc2c1 | Human KDR (residues 790-1356) (Homo sapiens (Human)) | < 100 nM |
| Cc1cc(F)ccc1-c1c(C)ncc(C(=O)Nc2ccc(Oc3ccnc4cc(C)c(F)nc34)c(F)c2)c1O | Human KDR (residues 790-1356) (Homo sapiens (Human)) | > 300 nM |
| COc1cnc2c(Oc3ccc(NC(=O)c4cn(C(C)C)cc(-c5ccc(F)cc5)c4=O)cc3F)ccnc2c1 | Human KDR (residues 790-1356) (Homo sapiens (Human)) | > 300 nM |
| CNC(=O)Cc1cc2c(Oc3ccc(NC(=O)c4cnc(C)c(-c5ccc(F)cc5)c4O)cc3F)ccnc2cc1OC | Human KDR (residues 790-1356) (Homo sapiens (Human)) | < 100 nM |

----------
measured on: Human KDR (residues 790-1356) (Homo sapiens (Human), UniProt P35968)
method: Human KDR kinase assay, HTRF KinEase (Example B-2)
Assay type: biochemical
setup conditions: protocol of Example B-2
Where a name gives a salt, the structure may show the parent alone.
Below: a set of entries, each annotated with reported IC50.

| molecule | IC50 |
| --- | --- |
| COc1cc2c(Oc3ccc(NC(=O)c4cn(C5CC5)c(C)c(-c5ccc(F)cc5)c4=O)cc3F)ccnc2cn1 | > 300 nM |
| CNc1c(-c2ccc(F)cc2)c(=O)c(C(=O)Nc2ccc(Oc3ccnc4cc(OC)cnc34)c(F)c2)cn1C | > 300 nM |
| COc1cc2ncnc(Oc3ccc(NC(=O)c4cn(-c5cnn(C)c5)cc(-c5ccc(F)cc5)c4=O)cc3F)c2nc1OC | > 300 nM |
| COc1cc2nccc(Oc3ccc(NC(=O)c4cnc(COC(C)=O)c(-c5ccc(F)cc5)c4O)cc3F)c2nc1OC | < 100 nM |
| Cc1ncc(C(=O)Nc2ccc(Oc3ccnc4cnc(Cl)cc34)c(F)c2)c(O)c1-c1ccc(F)cc1 | > 300 nM |
| COc1cc2nccc(Oc3ccc(NC(=O)c4c(C)ncc(-c5ccc(F)cc5C)c4O)cc3F)c2nc1OC | < 100 nM |
| Cc1nc2c(Oc3ccc(NC(=O)c4cnc(C)c(-c5ccc(F)cc5)c4O)cc3)ccnc2cc1-c1cccnc1 [Compound 616, hydrochloride] | > 300 nM |
